test: Half life in rat liver microsomes at 3 uM in presence of NADPH by LC-MS/MS analysis; type: ADME, Microsome
Assay metric: half-life at 3 µM (min)

>>> data_value("CS(=O)(=O)c1ccc(-c2ccc(CNS(=O)(=O)c3cc4cc(Cl)ccc4[nH]3)cc2)cc1")
36
>>> data_value("O=S(=O)(NCc1ccc(-c2ccc(F)cc2F)cn1)c1cc2cc(Br)ccc2[nH]1")
33
>>> data_value("O=S(=O)(NCc1ccc(-c2ccc(F)cc2)cn1)c1cc2cc(Br)ccc2[nH]1")
25

1: COc1ccc2[nH]c(S(=O)(=O)NCc3ccc(-c4ccc(C#N)cc4)cc3)cc2c1
2: O=S(=O)(NCc1ccc(-c2ccc(F)cc2)cc1)c1cc2cc(Br)ccc2[nH]1
// query 1 or 2 : whose half-life at 3 µM is greater? Your answer should be the label attached to the chosen record.
// result 2

====

Quick list: half-life at 3 µM per entry.
test: Half life in rat liver microsomes at 3 uM in presence of NADPH by LC-MS/MS analysis; assay type: ADME, Microsome

>>> data_value("O=S(=O)(NCc1ccc(-c2cccnc2)cc1)c1cc2ccccc2[nH]1")
"< 15 min"

// query I'd like to know its half-life at 3 µM. The compound in question is COc1ccc2[nH]c(S(=O)(=O)NCc3ccc(-c4ccc(F)nc4)cc3)cc2c1
// result < 15 min

====

biological target: Cannabinoid receptor 1 (Homo sapiens, UniProt P21554); test: Negative allosteric modulation of human CB1 receptor expressed in CHO-K1 cells assessed as inhibition of CP55940 induced beta arrestin recruitment preincubated for 30 mins followed by addition of CP55940 for 90 mins by chemiluminescence assay
Sequence (P21554 whole entry): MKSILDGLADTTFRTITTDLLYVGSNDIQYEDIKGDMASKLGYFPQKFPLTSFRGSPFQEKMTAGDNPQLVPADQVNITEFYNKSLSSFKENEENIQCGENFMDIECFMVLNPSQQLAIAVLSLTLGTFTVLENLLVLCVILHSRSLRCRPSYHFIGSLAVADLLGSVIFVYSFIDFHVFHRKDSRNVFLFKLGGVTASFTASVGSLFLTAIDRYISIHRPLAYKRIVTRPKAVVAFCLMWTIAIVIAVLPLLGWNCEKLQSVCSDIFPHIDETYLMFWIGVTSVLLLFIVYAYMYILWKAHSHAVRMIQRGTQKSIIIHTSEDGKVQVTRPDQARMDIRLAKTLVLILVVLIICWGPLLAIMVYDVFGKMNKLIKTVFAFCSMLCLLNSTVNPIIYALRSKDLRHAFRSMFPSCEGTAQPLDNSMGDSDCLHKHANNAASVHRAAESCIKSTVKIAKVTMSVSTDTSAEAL
Assay metric: IC50 (µM)

Examples with answers:
>>> data_value("CC(NS(=O)(=O)c1cc2ccccc2[nH]1)c1ccc(-c2ccc(F)cc2)cc1 (stereo not given)")
0.041
>>> data_value("O=S(=O)(NCc1ccc(-c2ccccc2)cc1)c1cc2ccccc2[nH]1")
0.002
>>> data_value("O=S(=O)(NCc1ccc(-c2ccc(F)nc2)cc1)c1cc2ccc(Cl)cc2[nH]1")
0.005

I: COc1ccc(CNS(=O)(=O)c2[nH]c3ccc(Cl)cc3c2C)cc1
II: COc1ccc(-c2ccc(CNS(=O)(=O)c3cc4ccccc4[nH]3)cc2)cc1
// query Just tell me: smaller IC50 value, I or II ? Indicate your choice by writing its label.
// result II

P: CS(=O)(=O)c1ccc(-c2ccc(CNS(=O)(=O)c3cc4ccccc4[nH]3)cc2)cc1
Q: Cc1c(S(=O)(=O)NCCc2ccc(N3CCCCC3)cc2)[nH]c2ccccc12
// query Dear colleague, could you let me know whether P or Q has the lower recorded IC50? Thanks. Pick one and reply with its label.
// result P

I: O=S(=O)(NCc1ccc(-c2ccccc2)cc1)c1[nH]c2ccccc2c1CO
II: O=S(=O)(NCc1ccc(-c2ccc(F)nc2F)cc1)c1cc2cc(Cl)ccc2[nH]1
// query Record comparison, field IC50: mark the lower of I and II . Provide the label of your selected option as the answer.
// result II
(II: 0.004 µM, I: 0.012 µM)

====

biological target: Cannabinoid receptor 1 (Homo sapiens, UniProt P21554); test: Negative allosteric modulation of human CB1 receptor expressed in CHO-K1 cells assessed as inhibition of CP55940 induced beta arrestin recruitment preincubated for 30 mins followed by addition of CP55940 for 90 mins by chemiluminescence assay
pIC50: −log10 of the molar value.
Assay metric: pIC50

>>> data_value("O=S(=O)(NCc1ccc(-c2ccccc2)cc1)c1cc2ccc(Cl)cc2[nH]1")
8.40
>>> data_value("CCc1c(C(=O)NCCc2ccc(N3CCCCC3)cc2)[nH]c2ccc(Cl)cc12")
8.70
>>> data_value("Cc1ccc(-c2ccc(CNS(=O)(=O)c3cc4ccccc4[nH]3)cc2)cc1")
8.52

====

# key: entry, value: half-life at 3 µM
assay: Half life in human liver microsomes at 3 uM in presence of NADPH by LC-MS/MS analysis; assay type: ADME, Microsome
Express the result in min but write the number alone.

>>> data_value("CS(=O)(=O)c1ccc(-c2ccc(CNS(=O)(=O)c3cc4cc(Cl)ccc4[nH]3)cc2)cc1")
41

From here, focus on the item given below.
// query Can you share its half-life at 3 µM? I mean this compound: COc1ccc(CNS(=O)(=O)c2cc3ccccc3[nH]2)cc1
// result 2

====

experiment: Half life in rat liver microsomes at 3 uM in presence of NADPH by LC-MS/MS analysis; assay type: ADME, Microsome
Assay metric: half-life at 3 µM (min)

>>> data_value("O=S(=O)(NCc1ccc(-c2ccc(F)cc2)cc1F)c1cc2cc(Cl)ccc2[nH]1")
112

A: O=S(=O)(NCc1ccc(-c2ccc(F)cc2F)cc1)c1cc2cc(Cl)ccc2[nH]1
B: O=S(=O)(NCc1ccc(-c2ccc(F)nc2)cc1)c1cc2ccc(Cl)cc2[nH]1
// query Hey, between A and B which has a smaller measured half-life at 3 µM? Identify your selection by its label.
// result B
(B: 23 min, A: 84 min)
